Recorded IC50 cell viability values for a group of molecules are listed next.
- System: NHEK immortalized keratinocytes
- assay-overview: IC50 cell viability (CellTiter-Glo)
- experimental-context: 24 h
Write it as a number; the unit µM goes unstated.

// solved cases for IC50 cell viability follow
- molecule: "CC1(C)CNC(=NN=C(/C=C/c2ccc(C(F)(F)F)cc2)/C=C/c2ccc(C(F)(F)F)cc2)NC1 [Hydramethylnon]"
  experimental-system: "NHEK immortalized keratinocytes"
  scale-unit: "µM"
  IC50 cell viability: 17
- molecule: "CCCCCCCCCCCCOC(=O)c1cc(O)c(O)c(O)c1 [Dodecyl gallate]"
  experimental-system: "NHEK immortalized keratinocytes"
  scale-unit: "µM"
  IC50 cell viability: 21
- molecule: "O=C(Nc1ccc(Cl)cc1)Nc1ccc(Cl)c(Cl)c1"
  experimental-system: "NHEK immortalized keratinocytes"
  scale-unit: "µM"
  IC50 cell viability: 2.7
- molecule: "CCCCN(CCC(=O)OCC)C(C)=O [Ethyl 3-(N-butylacetamido)propionate]"
  experimental-system: "NHEK immortalized keratinocytes"
  scale-unit: "µM"
  IC50 cell viability: 21

Per the reported NHEK immortalized keratinocytes data, O=C(c1ccccc1)c1ccc(O)cc1O [2,4-Dihydroxybenzophenone] has IC50 cell viability of 58.1

---

- Test system: NKTC primary neonatal keratinocytes
- assay-overview: IC50 cell viability (CellTiter-Glo)
- experimental-context: 24 h
quantity: log10 IC50 cell viability (log10 of the value in µM)
All values: log10 IC50 cell viability [µM].

// solved cases for log10 IC50 cell viability follow
- compound: "O=C1OC2(c3cc(Br)c(O)c(Br)c3Oc3c2cc(Br)c(O)c3Br)c2c(Cl)c(Cl)c(Cl)c(Cl)c21"
  log10 IC50 cell viability: 1.45
- compound: "N#CCCC(Br)(C#N)CBr (stereo unspecified)"
  log10 IC50 cell viability: 1.89
- compound: "[K+].[K+].[O]=[Cr](=[O])([O-])[O][Cr](=[O])(=[O])[O-] [Potassium dichromate]"
  log10 IC50 cell viability: 0.40
- compound: "CCCCCCCCCCCCc1ccc(S(=O)(=O)O)cc1"
  log10 IC50 cell viability: 1.48
- compound: "CC(C)(C)c1cc(O)ccc1O [tert-Butylhydroquinone]"
  log10 IC50 cell viability: 1.76
- compound: "CN(C)c1ccc(C(=C2C=CC(=[N+](C)C)C=C2)c2ccc(N(C)C)cc2)cc1 [Methylrosaniline chloride]"
  log10 IC50 cell viability: 1.62
- compound: "C=CC(=O)OCC(CC)(COC(=O)C=C)COC(=O)C=C [Trimethylolpropane triacrylate]"
  log10 IC50 cell viability: 1.31
- compound: "O=[N+]([O-])C(Br)(CO)CO"
  log10 IC50 cell viability: 1.86

The compound Cc1ccc(/C=C2/C(=O)C3(C)CCC2C3(C)C)cc1 (stereo unspecified) showed log10 IC50 cell viability equal to 1.85

The compound `Cc1c2ccccc2c(C)c2c1ccc1ccccc12` showed log10 IC50 cell viability equal to 1.66

The compound CCCCCCCCCCCC[N+](C)(C)Cc1ccccc1 [Benzyldimethyldodecylammonium chloride] showed log10 IC50 cell viability equal to 1.63

---

- Test system: NKTC primary neonatal keratinocytes
- assay-overview: IC50 cell viability (CellTiter-Glo)
- experimental-context: 24 h
quantity: IC50 cell viability (µM)
Write it as a number; the unit µM goes unstated.

The compound N#CC(Cl)(Cl)Cl [Trichloroacetonitrile] showed IC50 cell viability equal to 5.34

The compound Oc1c(Cl)cc(Cl)c(Cl)c1Cc1c(O)c(Cl)cc(Cl)c1Cl [Hexachlorophene] showed IC50 cell viability equal to 18.8
